- Target desc: CaCyk3
- Assay name: SPOT peptide array binding signal intensity (averaged, normalized) (arbitrary units (background-subtracted, floor 0; scale differs between SH3 domains)); higher = stronger binding of the SH3 domain to the peptide
Property: SPOT peptide array binding signal intensity

Binder | Relational operator | Observed value
RKQRSIPLSPIVPES | = | 48
DKSRPPRPPPKPLHL | = | 34.5
PVLPPPRSPNRPTLS | = | 67
KNRKNLPTIPIRLSG | = | 8
KTITLEVESSDTIDN | ≤ | 0
LKVTPGRRAPTISKI | = | 18
WRPRIVPILPYITRL | = | 29.5
